Ref: patent US20120329708A1

- experimental-target: GLP-1 receptor (HEK293 cells co-transfected with the GLP-1 receptor and a CRE-luciferase gene)
- experiment-summary: cell-based or functional assay
*1 amine or outer side, *2 acyl side, *3 side chain or, on linkers, in order; H or OH if unused. Where no end group is shown, it is not given here. Side-chain parts run from the residue outwards. [ ]: non-standard residue; d: D form. The star is where a group is joined. 40K‑TE PEG = 40 kDa PEG attached to Cys by thioether; γGlu = O=C(O)[C@H](CCC(=O)[*:2])N[*:1]; Palmitoyl = CCCCCCCCCCCCCCCC(=O)*; Morn = not defined here; Aib = CC(C)(N)C(=O)O
measure: EC50 (nM) at GLP-1 receptor (cAMP-induced luciferase reporter, HEK293)
Answers are plain numbers, in nM.

Please review the following examples before continuing.
HSQGTFTSDKSKYLDERAAQDFVQWLLDTKX (s at position 2 (lower case, presumably D-Ser); K(γGlu-C16) at position 10 (Lys acylated with C16 via γGlu spacer); C-terminal γGlu; C-terminal amide) [peptide of SEQ ID NO: 14]	0.003
H[Aib]QGTFTSDK([γGlu-γGlu-Palmitoyl])SKYLD[Aib]RAAQDFVQWL[Morn]DTKQ-OH (not fully specified; printed as HaibQGTFTSDK(γGlu-γGlu-C16)SKYLDaibRAAQDFVQWLMornDTKQ-acid; reading uncertain) [peptide of SEQ ID NO: 15]	0.005
H[Aib]QGTFTSDK([γGlu-γGlu-Palmitoyl])SKYLD[Aib]RAAQDFVQWLMDTK[γGlu]-NH2 [peptide of SEQ ID NO: 12]	0.003

Now for another entry.
q: Look up and report measured EC50 (nM) at GLP-1 receptor (cAMP-induced luciferase reporter, HEK293) for this entry: H[Aib]QGTFTSDYSKYLDERRA[Aib]EFVC(40K‑TE PEG)WLLDTK[γGlu]-NH2 [peptide of SEQ ID NO: 13]
a: 0.567
